- measured target: T1, Cre recombinase monomer with Q311R mutation
- T1 chain: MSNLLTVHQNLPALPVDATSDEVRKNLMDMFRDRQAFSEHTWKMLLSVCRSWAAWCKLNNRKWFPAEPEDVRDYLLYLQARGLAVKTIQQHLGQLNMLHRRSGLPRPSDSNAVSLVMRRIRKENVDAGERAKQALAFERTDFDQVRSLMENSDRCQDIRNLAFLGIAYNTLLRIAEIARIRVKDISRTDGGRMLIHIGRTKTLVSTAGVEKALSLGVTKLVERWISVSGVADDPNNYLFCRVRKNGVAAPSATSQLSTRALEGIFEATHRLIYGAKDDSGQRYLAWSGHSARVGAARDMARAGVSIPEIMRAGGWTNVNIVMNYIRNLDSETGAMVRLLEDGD
endpoint: Median dimer activity (recombination on loxP)

Some solved cases for reference:
Cre recombinase monomer with H289D mutation (protein) MSNLLTVHQNLPALPVDATSDEVRKNLMDMFRDRQAFSEHTWKMLLSVCRSWAAWCKLNNRKWFPAEPEDVRDYLLYLQARGLAVKTIQQHLGQLNMLHRRSGLPRPSDSNAVSLVMRRIRKENVDAGERAKQALAFERTDFDQVRSLMENSDRCQDIRNLAFLGIAYNTLLRIAEIARIRVKDISRTDGGRMLIHIGRTKTLVSTAGVEKALSLGVTKLVERWISVSGVADDPNNYLFCRVRKNGVAAPSATSQLSTRALEGIFEATHRLIYGAKDDSGQRYLAWSGDSARVGAARDMARAGVSIPEIMQAGGWTNVNIVMNYIRNLDSETGAMVRLLEDGD	97%
Cre recombinase monomer with K201I mutation (protein) MSNLLTVHQNLPALPVDATSDEVRKNLMDMFRDRQAFSEHTWKMLLSVCRSWAAWCKLNNRKWFPAEPEDVRDYLLYLQARGLAVKTIQQHLGQLNMLHRRSGLPRPSDSNAVSLVMRRIRKENVDAGERAKQALAFERTDFDQVRSLMENSDRCQDIRNLAFLGIAYNTLLRIAEIARIRVKDISRTDGGRMLIHIGRTITLVSTAGVEKALSLGVTKLVERWISVSGVADDPNNYLFCRVRKNGVAAPSATSQLSTRALEGIFEATHRLIYGAKDDSGQRYLAWSGHSARVGAARDMARAGVSIPEIMQAGGWTNVNIVMNYIRNLDSETGAMVRLLEDGD	86%
Cre recombinase monomer with R292A mutation (protein) MSNLLTVHQNLPALPVDATSDEVRKNLMDMFRDRQAFSEHTWKMLLSVCRSWAAWCKLNNRKWFPAEPEDVRDYLLYLQARGLAVKTIQQHLGQLNMLHRRSGLPRPSDSNAVSLVMRRIRKENVDAGERAKQALAFERTDFDQVRSLMENSDRCQDIRNLAFLGIAYNTLLRIAEIARIRVKDISRTDGGRMLIHIGRTKTLVSTAGVEKALSLGVTKLVERWISVSGVADDPNNYLFCRVRKNGVAAPSATSQLSTRALEGIFEATHRLIYGAKDDSGQRYLAWSGHSAAVGAARDMARAGVSIPEIMQAGGWTNVNIVMNYIRNLDSETGAMVRLLEDGD	96%

Inquiry: # get_value(readout='Median dimer activity (recombination on loxP)', item= Cre recombinase monomer with H289E mutation (protein) MSNLLTVHQNLPALPVDATSDEVRKNLMDMFRDRQAFSEHTWKMLLSVCRSWAAWCKLNNRKWFPAEPEDVRDYLLYLQARGLAVKTIQQHLGQLNMLHRRSGLPRPSDSNAVSLVMRRIRKENVDAGERAKQALAFERTDFDQVRSLMENSDRCQDIRNLAFLGIAYNTLLRIAEIARIRVKDISRTDGGRMLIHIGRTKTLVSTAGVEKALSLGVTKLVERWISVSGVADDPNNYLFCRVRKNGVAAPSATSQLSTRALEGIFEATHRLIYGAKDDSGQRYLAWSGESARVGAARDMARAGVSIPEIMQAGGWTNVNIVMNYIRNLDSETGAMVRLLEDGD )
Reply text: 94%
